# assaySystem: protein-protein interaction between Kras and SOS1 (biotin-tagged human Kras loaded with GDP, His-tagged human SOS1) (Homo sapiens (Human), UniProt P01116, G12D)
# test: Protein-protein interaction inhibition between Kras and SOS1 (KrasG12D-SOS PPI) using AlphaScreen
# Format: biochemical
# conditionSummary: AlphaScreen; biotin-tagged human Kras loaded with GDP, His-tagged human SOS1; read-out: KRAS G12D-SOS PPI IC50
Bridge positions count the residues as written; N and C are the ends. Square brackets hold non-standard residues; d marks the D form. Peptide text beside a SMILES is read from it. * marks the point of attachment. hPhe(3-Cl-4-CF3) = N[C@@H](CCc1ccc(C(F)(F)F)c(Cl)c1)C(=O)O; NMeAbu(4,4,4-F3) = CN[C@@H](CC(F)(F)F)C(=O)O; NMePhe(4-Me) = CN[C@@H](Cc1ccc(C)cc1)C(=O)O; NMeD = CN[C@@H](CC(=O)O)C(=O)O; NMeL = CN[C@@H](CC(C)C)C(=O)O; NMeV = CN[C@H](C(=O)O)C(C)C; NMeA = CN[C@@H](C)C(=O)O; Piperidide = C1CCN(*)CC1; Ac5c = NC1(C(=O)O)CCCC1; Aze = O=C(O)[C@@H]1CCN1; Sar = CNCC(=O)O
Overview of recorded IC50 for various compounds

compound	valueReported
CC[C@H](C)[C@@H]1NC(=O)[C@H](CC(C)C)N(C)C(=O)C[C@@H](C(=O)N(C)C)N(C)C(=O)[C@H](C(C)C)N(C)C(=O)C2(CCCC2)NC(=O)[C@@H]2CCCN2C(=O)[C@H](CCc2ccc(C(F)(F)F)c(Cl)c2)NC(=O)CN(C)C(=O)[C@H](Cc2ccc(C)cc2)N(C)C(=O)[C@@H]2CCN2C(=O)[C@H](C)N(C)C1=O [Compound 1653] ([NMeL]I[NMeA][Aze][NMePhe(4-Me)][Sar][hPhe(3-Cl-4-CF3)]P[Ac5c][NMeV][NMeD]-NMe2; lactam N-11)	0.89 nM

Now look at this one.
Query string: Quick one: IC50 of CC[C@H](C)[C@@H]1NC(=O)[C@H](CC(C)C)N(C)C(=O)C[C@@H](C(=O)N2CCCCC2)N(C)C(=O)[C@H](C(C)C)N(C)C(=O)C2(CCCC2)NC(=O)[C@@H]2CCCN2C(=O)[C@H](CCc2ccc(C(F)(F)F)c(Cl)c2)NC(=O)CN(C)C(=O)[C@H](CC(F)(F)F)N(C)C(=O)[C@@H]2CCN2C(=O)[C@H](C)N(C)C1=O [Compound 1665] ([NMeL]I[NMeA][Aze][NMeAbu(4,4,4-F3)][Sar][hPhe(3-Cl-4-CF3)]P[Ac5c][NMeV][NMeD]-Piperidide; lactam N-11) ?
Result string: 19 nM

---

Overview of recorded pIC50 for various compounds
# assaySystem: protein-protein interaction between Kras and SOS1 (biotin-tagged human Kras loaded with GDP, His-tagged human SOS1) (Homo sapiens (Human), UniProt P01116, G12D)
# test: Protein-protein interaction inhibition between Kras and SOS1 (KrasG12D-SOS PPI) using AlphaScreen
# Format: biochemical
# conditionSummary: AlphaScreen; biotin-tagged human Kras loaded with GDP, His-tagged human SOS1; read-out: KRAS G12D-SOS PPI IC50
Bridge positions count the residues as written; N and C are the ends. Square brackets hold non-standard residues; d marks the D form. Peptide text beside a SMILES is read from it. * marks the point of attachment. hPhe(3-Cl-4-CF3) = N[C@@H](CCc1ccc(C(F)(F)F)c(Cl)c1)C(=O)O; hPhe(3-F,4-CF3) = N[C@@H](CCc1ccc(C(F)(F)F)c(F)c1)C(=O)O; NMePhe(4-Me) = CN[C@@H](Cc1ccc(C)cc1)C(=O)O; NMeGly(cPent) = CN[C@H](C(=O)O)C1CCCC1; NMeCha = CN[C@@H](CC1CCCCC1)C(=O)O; Hyp = O=C(O)[C@@H]1C[C@@H](O)CN1; NMeI = CC[C@H](C)[C@H](NC)C(=O)O; NMeT = CN[C@H](C(=O)O)[C@@H](C)O; NMeD = CN[C@@H](CC(=O)O)C(=O)O; NMeL = CN[C@@H](CC(C)C)C(=O)O; NMeV = CN[C@H](C(=O)O)C(C)C; d(β3hA) = C[C@@H](N)CC(=O)O; NMeC = CN[C@@H](CS)C(=O)O; Morpholide = C1CN(*)CCO1; NMeA = CN[C@@H](C)C(=O)O; Piperidide = C1CCN(*)CC1; Ac5c = NC1(C(=O)O)CCCC1; Aze = O=C(O)[C@@H]1CCN1; Sar = CNCC(=O)O
FYI, pIC50 means -log10 of a concentration in mol per litre.

compound	pIC50
CC[C@H](C)[C@@H]1NC(=O)[C@H](C)N(C)C(=O)C[C@@H](C)NC(=O)[C@H](C2CCCC2)N(C)C(=O)C2(CCCC2)NC(=O)[C@@H]2CCCN2C(=O)[C@H](CCc2ccc(C(F)(F)F)c(Cl)c2)NC(=O)CN(C)C(=O)[C@H](Cc2ccc(C)cc2)N(C)C(=O)CN(C)C(=O)CN(C)C1=O [Compound 1485] (cyclo([Ac5c][NMeGly(cPent)][d(β3hA)][NMeA]I[Sar][Sar][NMePhe(4-Me)][Sar][hPhe(3-Cl-4-CF3)]P))	9.08
CC[C@H](C)[C@@H]1NC(=O)[C@H](CC(C)C)N(C)C(=O)C[C@@H](C(=O)N2CCCCC2)N(C)C(=O)[C@H](C(C)C)N(C)C(=O)C2(CCCC2)NC(=O)[C@@H]2CCCN2C(=O)[C@H](CCc2ccc(C(F)(F)F)c(Cl)c2)NC(=O)CN(C)C(=O)[C@H](CC2CCCCC2)N(C)C(=O)[C@@H]2CCN2C(=O)[C@H]([C@@H](C)O)N(C)C1=O [Compound 496] ([NMeL]I[NMeT][Aze][NMeCha][Sar][hPhe(3-Cl-4-CF3)]P[Ac5c][NMeV][NMeD]-Piperidide; lactam N-11)	8.00
CC[C@H](C)[C@@H]1NC(=O)[C@H](CC(C)C)N(C)C(=O)C[C@@H](C(=O)N(C)C)N(C)C(=O)[C@H](C2CCCC2)N(C)C(=O)C2(CCCC2)NC(=O)[C@@H]2CCCN2C(=O)[C@H](CCc2ccc(C(F)(F)F)c(F)c2)NC(=O)CN(C)C(=O)[C@H](CC2CCCCC2)N(C)C(=O)[C@@H]2CCN2C(=O)[C@H](C)NC1=O [Compound 1164] ([NMeL]IA[Aze][NMeCha][Sar][hPhe(3-F,4-CF3)]P[Ac5c][NMeGly(cPent)][NMeD]-NMe2; lactam N-11)	8.85
CC[C@H](C)[C@@H]1NC(=O)CSC[C@@H](C(=O)N(C)C)N(C)C(=O)[C@H]([C@@H](C)CC)N(C)C(=O)C2(CCCC2)NC(=O)[C@@H]2CCCN2C(=O)[C@H](CCc2ccc(C(F)(F)F)c(Cl)c2)NC(=O)CN(C)C(=O)[C@H](Cc2ccc(C)cc2)N(C)C(=O)CN(C)C(=O)CN(C)C1=O [Compound 2173] ({CH2CO}-I[Sar][Sar][NMePhe(4-Me)][Sar][hPhe(3-Cl-4-CF3)]P[Ac5c][NMeI][NMeC]-NMe2; thioether N-10)	8.22

Query string: Quick one: pIC50 of CCO[C@@H]1C[C@H]2C(=O)NC3(CCCC3)C(=O)N(C)[C@@H](C3CCCC3)C(=O)N(C)[C@H](C(=O)N3CCOCC3)CC(=O)N(C)[C@@H](CC(C)C)C(=O)N[C@@H]([C@@H](C)CC)C(=O)N(C)[C@@H](C)C(=O)N3CC[C@H]3C(=O)N(C)[C@@H](CC3CCCCC3)C(=O)N(C)CC(=O)N[C@@H](CCc3ccc(C(F)(F)F)c(Cl)c3)C(=O)N2C1 [Compound 1259] ([NMeL]I[NMeA][Aze][NMeCha][Sar][hPhe(3-Cl-4-CF3)][Hyp](Et)[Ac5c][NMeGly(cPent)][NMeD]-Morpholide; lactam N-11) ?
Result string: 9.31

---

# assaySystem: protein-protein interaction between Kras and SOS1 (biotin-tagged human Kras loaded with GDP, His-tagged human SOS1) (Homo sapiens (Human), UniProt P01116, G12D)
# test: Protein-protein interaction inhibition between Kras and SOS1 (KrasG12D-SOS PPI) using AlphaScreen;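 note: kras produced in E. coli, Ni-coupled donor beads and streptavidin acceptor beads, excitation 680 nm with emission detected at 520–620 nm via singlet oxygen transfer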
# Format: biochemical
# conditionSummary: AlphaScreen; biotin-tagged human Kras loaded with GDP, His-tagged human SOS1; read-out: KRAS G12D-SOS PPI IC50
Bridge positions count the residues as written; N and C are the ends. Square brackets hold non-standard residues; d marks the D form. Peptide text beside a SMILES is read from it. * marks the point of attachment. hPhe(3-Cl-4-CF3) = N[C@@H](CCc1ccc(C(F)(F)F)c(Cl)c1)C(=O)O; hPhe(3-F,4-CF3) = N[C@@H](CCc1ccc(C(F)(F)F)c(F)c1)C(=O)O; NMePhe(4-Me) = CN[C@@H](Cc1ccc(C)cc1)C(=O)O; NMeCha = CN[C@@H](CC1CCCCC1)C(=O)O; NMeChg = CN[C@H](C(=O)O)C1CCCCC1; NMeD = CN[C@@H](CC(=O)O)C(=O)O; NMeL = CN[C@@H](CC(C)C)C(=O)O; NMeV = CN[C@H](C(=O)O)C(C)C; NMeA = CN[C@@H](C)C(=O)O; Piperidide = C1CCN(*)CC1; Pyrrolidide = C1CCN(*)C1; Ac5c = NC1(C(=O)O)CCCC1; Aze = O=C(O)[C@@H]1CCN1; Sar = CNCC(=O)O
Overview of recorded IC50 for various molecules
Please give a number only; it is taken to be in nM.

molecule	IC50, nM
CC[C@H](C)[C@@H]1NC(=O)[C@H](CC(C)C)N(C)C(=O)C[C@@H](C(=O)N2CCCC2)N(C)C(=O)[C@H](C2CCCCC2)N(C)C(=O)C2(CCCC2)NC(=O)[C@@H]2CCCN2C(=O)[C@H](CCc2ccc(C(F)(F)F)c(Cl)c2)NC(=O)CN(C)C(=O)[C@H](Cc2ccc(C)cc2)N(C)C(=O)[C@@H]2CCN2C(=O)[C@H](C)N(C)C1=O [Compound 1852] ([NMeL]I[NMeA][Aze][NMePhe(4-Me)][Sar][hPhe(3-Cl-4-CF3)]P[Ac5c][NMeChg][NMeD]-Pyrrolidide; lactam N-11)	0.94

Query string: Quick one: IC50 of CC[C@H](C)[C@@H]1NC(=O)[C@H](C)N(C)C(=O)C[C@@H](C(=O)N2CCCCC2)N(C)C(=O)[C@H](C(C)C)N(C)C(=O)C2(CCCC2)NC(=O)[C@@H]2CCCN2C(=O)[C@H](CCc2ccc(C(F)(F)F)c(F)c2)NC(=O)CN(C)C(=O)[C@H](CC2CCCCC2)N(C)C(=O)[C@@H]2CCN2C(=O)[C@H](C)N(C)C1=O [Compound 1024] ([NMeA]I[NMeA][Aze][NMeCha][Sar][hPhe(3-F,4-CF3)]P[Ac5c][NMeV][NMeD]-Piperidide; lactam N-11) ?
Result string: 1.9

Just for reference, patent US20240148821A1 is where these values come from.
